Cited source for all entries: ChEMBL document CHEMBL1145781

assay: Ratio of total concentration in lung to that of serum after 6 hr of intravenous administration to rats (n=4) at dose of 20 mg/kg; format: ADME, organism-based; design: dose 20 mg/kg, route intravenous; settings: rat
quantity: Kp at 6 h

compound: Cc1c(N2C[C@@H](F)[C@@H](C3(N)CC3)C2)c(F)c(N)c2c(=O)c(C(=O)O)cn([C@@H]3C[C@@H]3F)c12 [DQ-113]
recorded-measurement: 4.1

###

test system: Escherichia coli; assay: Antibacterial activity was determined against Escherichia coli NIHJ strain after incubation at 37 degrees C for 18 h; format: functional
Catalogue of MIC values
quantity: MIC

compound: Cc1c(N2C[C@H](C3(N)CC3)C(F)(F)C2)c(F)c(N)c2c(=O)c(C(=O)O)cn([C@@H]3C[C@@H]3F)c12
quantity: MIC
recorded-measurement: ≤ 3 ng/mL
//
compound: COc1c(N2C[C@@H]3CCCN[C@@H]3C2)c(F)cc2c(=O)c(C(=O)O)cn(C3CC3)c12 [MOXIFLOXACIN]
quantity: MIC
recorded-measurement: ≤ 3 ng/mL
//
compound: Cc1c(N2CC[C@@H](C3(N)CC3)C2)c(F)c(N)c2c(=O)c(C(=O)O)cn([C@@H]3C[C@@H]3F)c12
quantity: MIC
recorded-measurement: ≤ 3 ng/mL
//
compound: Cc1c(N2CC[C@@H](CN)C2)c(F)c(N)c2c(=O)c(C(=O)O)cn(C3C[C@@H]3F)c12 (single isomer, unassigned)
quantity: MIC
recorded-measurement: 13 ng/mL
